The entries that follow carry IC50 values tested on Serine/threonine-protein kinase mTOR (Homo sapiens, UniProt P42345), drawn from several published reports.

Exam item: I'd like to know its IC50. The compound in question is "O=c1[nH]c2ncc(-c3cnc4[nH]cc(F)c4c3)cc2n1C[C@H]1COCCO1"
Marked response: < 0.05 µM

Exam item: I'd like to know its IC50. The compound in question is CC1c2nc(-c3ccc(NC(=O)NC4CC4)cc3)nc(N3CCOC[C@@H]3C)c2C(C)S1(=O)=O (stereo partly shown)
Marked response: < 0.1 µM

Exam item: I'd like to know its IC50. The compound in question is NC1CCN(C(=O)c2ccc(NC(=O)Nc3ccc(-c4nc(N5CCOCC5)c5ccc(-c6ccco6)cc5n4)cc3)cc2)C1 (stereo in doubt)
Marked response: < 0.05 µM

Exam item: I'd like to know its IC50. The compound in question is "Nc1ncc(-c2nc(N3CCOCC3)c3nc(-c4cccc(NS(=O)(=O)c5c(F)cccc5F)c4F)ccc3n2)cn1"
Marked response: 0.1 to 1 µM
